- Test system: OVCAR-4 ovarian
- protocol-text: NCI tumour cell line growth inhibition, 48 h
endpoint-name: TGI

Use the examples below as a reference point.
CCN(CCO)CCCOc1ccc2c(Nc3cc(CC(=O)Nc4cccc(F)c4)[nH]n3)ncnc2c1
> 100 µM
C#Cc1ccc(-n2c(/C=C/c3ccc4ccccc4c3)nc3ncccc3c2=O)cc1
> 100 µM
Cc1cccc(/C=N/NC(=S)N(C)CCc2ccccn2)n1
> 100 µM

Give the reported TGI for CNc1ncnc2c1cnn2CCCCO (system: OVCAR-4 ovarian). > 100 µM

Give the reported TGI for O=C(N/N=C/c1ccc(Cl)cc1)c1ccccc1Nc1ccccc1C(=O)N/N=C/c1ccc(Cl)cc1 (system: OVCAR-4 ovarian). > 100 µM

Give the reported TGI for Cc1ccc(NC(=O)C(=O)CC(=O)c2ccccc2)cc1C (system: OVCAR-4 ovarian). > 100 µM

Give the reported TGI for C=C1C(=O)C2(C)OC2(C)C1C(=O)O (stereo unspecified) (system: OVCAR-4 ovarian). > 100 µM

Give the reported TGI for NC(=O)c1cc([N+](=O)[O-])cc([N+](=O)[O-])c1 (system: OVCAR-4 ovarian). > 100 µM
